The origin of these recorded values is patent US20200407452A1.

biological target: native mouse MET on living cells (mouse, UniProt P16056 25-1379); assay: cell-based or functional assay
VALUE KIND: protection from staurosporine-induced apoptosis EC50, MLP29 cells (nM)
Number only, in nM; omit the unit.

Record excerpt, results attached:
71G2 chimeric llama-human IgG1 mAb (antibody, V domains shown, human IgG1 CH1-CH2-CH3 and human CL lambda; also called 71G2 Human IgG1/lambda) VH: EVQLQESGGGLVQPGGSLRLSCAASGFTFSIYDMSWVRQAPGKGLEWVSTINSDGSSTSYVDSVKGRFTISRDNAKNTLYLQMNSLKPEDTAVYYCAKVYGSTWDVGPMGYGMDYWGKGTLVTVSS VL: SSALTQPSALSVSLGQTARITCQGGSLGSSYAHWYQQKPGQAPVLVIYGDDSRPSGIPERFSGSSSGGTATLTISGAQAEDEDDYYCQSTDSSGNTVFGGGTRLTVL	1.99
71G3 chimeric llama-human IgG1 mAb (antibody, V domains shown, human IgG1 CH1-CH2-CH3 and human CL lambda; also called 71G3 Human IgG1/lambda) VH: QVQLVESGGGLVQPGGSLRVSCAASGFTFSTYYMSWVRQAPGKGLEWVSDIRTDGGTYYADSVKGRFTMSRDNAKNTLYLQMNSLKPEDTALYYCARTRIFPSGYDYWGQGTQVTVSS VL: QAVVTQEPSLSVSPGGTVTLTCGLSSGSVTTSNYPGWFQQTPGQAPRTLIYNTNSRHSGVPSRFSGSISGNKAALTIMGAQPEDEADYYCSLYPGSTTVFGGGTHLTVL	4.85
71D4 chimeric llama-human IgG1 mAb (antibody, V domains shown, human IgG1 CH1-CH2-CH3 and human CL lambda) VH: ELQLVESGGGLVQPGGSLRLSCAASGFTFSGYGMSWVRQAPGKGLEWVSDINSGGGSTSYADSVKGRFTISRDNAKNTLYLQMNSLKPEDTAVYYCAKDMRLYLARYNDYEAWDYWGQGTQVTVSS VL: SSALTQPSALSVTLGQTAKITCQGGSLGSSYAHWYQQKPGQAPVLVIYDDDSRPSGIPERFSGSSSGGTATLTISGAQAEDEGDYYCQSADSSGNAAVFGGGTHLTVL	29.8

# evaluate next
-- ask So what does the record say about protection from staurosporine-induced apoptosis EC50, MLP29 cells for 71C3 chimeric llama-human IgG1 mAb (antibody, V domains shown, human IgG1 CH1-CH2-CH3 and human CL lambda) VH: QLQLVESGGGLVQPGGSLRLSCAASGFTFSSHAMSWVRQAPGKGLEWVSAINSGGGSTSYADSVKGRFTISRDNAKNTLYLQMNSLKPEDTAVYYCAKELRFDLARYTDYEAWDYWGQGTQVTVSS VL: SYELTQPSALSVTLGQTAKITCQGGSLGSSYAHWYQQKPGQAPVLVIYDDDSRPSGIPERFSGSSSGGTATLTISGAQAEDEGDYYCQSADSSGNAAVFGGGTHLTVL ?
-- reply 31
